conditions: 283.15 K; 10000 kPa; Liquid; Vibrating tube method
quantity-measured: mass density (kg/m3)

compound: CCCOCCC [dipropyl ether]
unit-label: kg/m3
mass density: 767.05

compound: CC(C)CCOCCC(C)C [di-(3-methylbutyl) ether]
unit-label: kg/m3
mass density: 790.71

compound: CCCCCOCCCCC [dipentyl ether]
unit-label: kg/m3
mass density: 798.47

compound: CCOC(C)(C)C [2-ethoxy-2-methylpropane]
unit-label: kg/m3
mass density: 761.33

compound: COC(C)(C)C [2-methoxy-2-methylpropane]
unit-label: kg/m3
mass density: 761.29

compound: CC(C)OC(C)C [diisopropyl ether]
unit-label: kg/m3
mass density: 744.9

compound: CCCCOCC [butyl ethyl ether]
unit-label: kg/m3
mass density: 768.96

compound: CCCCOC [butyl methyl ether]
unit-label: kg/m3
mass density: 765.42

###

conditions: 288.15 K; 35000 kPa; Liquid; Vibrating tube method
quantity-measured: mass density (kg/m3)

given-smiles: COC(C)(C)C
unit-label: kg/m3
mass density: 778.15
--
given-smiles: CCCCOC
unit-label: kg/m3
mass density: 781.19
--
given-smiles: CCCCCOCCCCC
unit-label: kg/m3
mass density: 810.97
--
given-smiles: CCOC(C)(C)C
unit-label: kg/m3
mass density: 778.21
--
given-smiles: CC(C)CCOCCC(C)C
unit-label: kg/m3
mass density: 804.15
--
given-smiles: CCCOCCC
unit-label: kg/m3
mass density: 782.73
--
given-smiles: CCCCOCC
unit-label: kg/m3
mass density: 784.28
--
given-smiles: CC(C)OC(C)C
unit-label: kg/m3
mass density: 763.01

###

conditions: 313.15 K; 15000 kPa; Liquid; Vibrating tube method
quantity-measured: mass density (kg/m3)

given-smiles: CCCCOC
numeric-result: 742.4

given-smiles: CC(C)OC(C)C
numeric-result: 722.17

given-smiles: CC(C)CCOCCC(C)C
numeric-result: 772.01

given-smiles: CCOC(C)(C)C
numeric-result: 738.45

given-smiles: CCCOCCC
numeric-result: 744.77

given-smiles: CCCCOCC
numeric-result: 746.82

given-smiles: CCCCCOCCCCC
numeric-result: 779.56

given-smiles: COC(C)(C)C
numeric-result: 737.97

###

conditions: 288.15 K; 30000 kPa; Liquid; Vibrating tube method
quantity-measured: mass density (kg/m3)

given-smiles: CCCCCOCCCCC
numeric-result: 807.94

given-smiles: CCCCOC
numeric-result: 777.48

given-smiles: CCOC(C)(C)C
numeric-result: 774.31

given-smiles: CCCCOCC
numeric-result: 780.66

given-smiles: CC(C)CCOCCC(C)C
numeric-result: 800.95

given-smiles: COC(C)(C)C
numeric-result: 774.24

given-smiles: CC(C)OC(C)C
numeric-result: 758.9

given-smiles: CCCOCCC
numeric-result: 779.05

###

conditions: 323.15 K; 100 kPa; Liquid; Vibrating tube method
quantity-measured: mass density (kg/m3)

compound: CCCOCCC [dipropyl ether]
mass density [kg/m3]: 717.7

compound: CC(C)OC(C)C [diisopropyl ether]
mass density [kg/m3]: 691.61

compound: CC(C)CCOCCC(C)C [di-(3-methylbutyl) ether]
mass density [kg/m3]: 750.16

compound: CCOC(C)(C)C [2-ethoxy-2-methylpropane]
mass density [kg/m3]: 709.43

compound: CCCCOCC [butyl ethyl ether]
mass density [kg/m3]: 720.43

compound: CCCCOC [butyl methyl ether]
mass density [kg/m3]: 714.8

compound: COC(C)(C)C [2-methoxy-2-methylpropane]
mass density [kg/m3]: 708.45

compound: CCCCCOCCCCC [dipentyl ether]
mass density [kg/m3]: 758.69

###

conditions: 313.15 K; 55000 kPa; Liquid; Vibrating tube method
quantity-measured: mass density (kg/m3)

given-smiles: CCOC(C)(C)C
mass density [kg/m3]: 773.66
//
given-smiles: COC(C)(C)C
mass density [kg/m3]: 773.39
//
given-smiles: CC(C)OC(C)C
mass density [kg/m3]: 759.09
//
given-smiles: CCCOCCC
mass density [kg/m3]: 777.67
//
given-smiles: CCCCOC
mass density [kg/m3]: 775.93
//
given-smiles: CCCCOCC
mass density [kg/m3]: 779.22
//
given-smiles: CC(C)CCOCCC(C)C
mass density [kg/m3]: 800.03
//
given-smiles: CCCCCOCCCCC
mass density [kg/m3]: 806.26

###

conditions: 283.15 K; 15000 kPa; Liquid; Vibrating tube method
quantity-measured: mass density (kg/m3)

compound: CCCCCOCCCCC [dipentyl ether]
numeric-result: 801.9
--
compound: CC(C)OC(C)C [diisopropyl ether]
numeric-result: 749.85
--
compound: CCOC(C)(C)C [2-ethoxy-2-methylpropane]
numeric-result: 765.98
--
compound: CCCCOC [butyl methyl ether]
numeric-result: 769.77
--
compound: CCCCOCC [butyl ethyl ether]
numeric-result: 773.2
--
compound: CCCOCCC [dipropyl ether]
numeric-result: 771.45
--
compound: COC(C)(C)C [2-methoxy-2-methylpropane]
numeric-result: 765.93
--
compound: CC(C)CCOCCC(C)C [di-(3-methylbutyl) ether]
numeric-result: 794.36

###

conditions: 333.15 K; 65000 kPa; Liquid; Vibrating tube method
quantity-measured: mass density (kg/m3)

given-smiles: CCOC(C)(C)C
numeric-result: 766.51

given-smiles: CCCCOC
numeric-result: 768.34

given-smiles: CC(C)CCOCCC(C)C
numeric-result: 793.83

given-smiles: CCCCCOCCCCC
numeric-result: 799.67

given-smiles: CCCCOCC
numeric-result: 771.92

given-smiles: CCCOCCC
numeric-result: 770.23

given-smiles: CC(C)OC(C)C
numeric-result: 752.02

###

conditions: 323.15 K; 50000 kPa; Liquid; Vibrating tube method
quantity-measured: mass density (kg/m3)

given-smiles: CCCCOC
numeric-result: 764.7
--
given-smiles: CCCCOCC
numeric-result: 768.4
--
given-smiles: CC(C)OC(C)C
numeric-result: 747.72
--
given-smiles: CCCCCOCCCCC
numeric-result: 796.9
--
given-smiles: COC(C)(C)C
numeric-result: 761.98
--
given-smiles: CCOC(C)(C)C
numeric-result: 762.39
--
given-smiles: CCCOCCC
numeric-result: 766.76
--
given-smiles: CC(C)CCOCCC(C)C
numeric-result: 790.66

###

conditions: 308.15 K; 55000 kPa; Liquid; Vibrating tube method
quantity-measured: mass density (kg/m3)

given-smiles: CC(C)OC(C)C
numeric-result: 762.79

given-smiles: CCCCOCC
numeric-result: 782.89

given-smiles: CCCCCOCCCCC
numeric-result: 809.43

given-smiles: COC(C)(C)C
numeric-result: 777.14

given-smiles: CCCCOC
numeric-result: 779.69

given-smiles: CC(C)CCOCCC(C)C
numeric-result: 803.2

given-smiles: CCCOCCC
numeric-result: 781.37

given-smiles: CCOC(C)(C)C
numeric-result: 777.4

###

conditions: 293.15 K; 20000 kPa; Liquid; Vibrating tube method
quantity-measured: mass density (kg/m3)

given-smiles: CC(C)OC(C)C
quantity-measured: mass density
numeric-result: 745.62
--
given-smiles: CCCCCOCCCCC
quantity-measured: mass density
numeric-result: 797.91
--
given-smiles: CCCOCCC
quantity-measured: mass density
numeric-result: 766.89
--
given-smiles: CCCCOCC
quantity-measured: mass density
numeric-result: 768.69
--
given-smiles: COC(C)(C)C
quantity-measured: mass density
numeric-result: 761.35
--
given-smiles: CCCCOC
quantity-measured: mass density
numeric-result: 765.09
--
given-smiles: CCOC(C)(C)C
quantity-measured: mass density
numeric-result: 761.5
--
given-smiles: CC(C)CCOCCC(C)C
quantity-measured: mass density
numeric-result: 790.55

###

conditions: 313.15 K; 60000 kPa; Liquid; Vibrating tube method
quantity-measured: mass density (kg/m3)

given-smiles: CCOC(C)(C)C
numeric-result: 777.23

given-smiles: CCCCOCC
numeric-result: 782.57

given-smiles: CC(C)CCOCCC(C)C
numeric-result: 803

given-smiles: CCCOCCC
numeric-result: 781.06

given-smiles: CCCCOC
numeric-result: 779.39

given-smiles: COC(C)(C)C
numeric-result: 776.97

given-smiles: CC(C)OC(C)C
numeric-result: 762.83

given-smiles: CCCCCOCCCCC
numeric-result: 809.11

###

conditions: 293.15 K; 45000 kPa; Liquid; Vibrating tube method
quantity-measured: mass density (kg/m3)

molecule: CCCCOC [butyl methyl ether]
unit-label: kg/m3
mass density: 784.3

molecule: CCCCOCC [butyl ethyl ether]
unit-label: kg/m3
mass density: 787.34

molecule: CCCOCCC [dipropyl ether]
unit-label: kg/m3
mass density: 785.81

molecule: CC(C)OC(C)C [diisopropyl ether]
unit-label: kg/m3
mass density: 766.78

molecule: CCOC(C)(C)C [2-ethoxy-2-methylpropane]
unit-label: kg/m3
mass density: 781.65

molecule: CCCCCOCCCCC [dipentyl ether]
unit-label: kg/m3
mass density: 813.44

molecule: COC(C)(C)C [2-methoxy-2-methylpropane]
unit-label: kg/m3
mass density: 781.54

molecule: CC(C)CCOCCC(C)C [di-(3-methylbutyl) ether]
unit-label: kg/m3
mass density: 806.9
